Source: patent US10745400B2

test: Intrinsic clearance, mouse; assay type: in vitro ADME; conditions: mouse, read-out: Intrinsic Clearance Mouse
endpoint label: CLint scaled (mL/min/kg)

Check out these entries, answers already filled in.
Cc1cc(-c2cnc3cc(-c4ccc(C5COCC(C)N5)cc4)ccn23)c2cc(F)ccc2n1 (stereo not shown) | 114
Cc1cc(-c2cnc3cc(-c4ccc(C5COC(C)CN5)cc4)ccn23)c2cc(F)cc(F)c2n1 (stereo not shown) | 131
Cc1cc(-c2cnc3cc(-c4ccc(N5CCNC(C)(C)C5)cc4)ccn23)c2cc(F)cc(F)c2n1 | 99
c1cnc2scc(-c3cnc4cc(-c5ccc(C6CNCCN6)cc5)ccn34)c2c1 (stereo not shown) | 53.5
Cc1cc(-c2cnc3cc(-c4ccc(C5COC(C)CN5)cc4)ccn23)c2ccccc2n1 (stereo not shown) | 114
Cc1cc(-c2cnc3cc(-c4ccc(C5COCCCN5)cc4)ccn23)c2cc(F)ccc2n1 (stereo not shown) | 101

a. Cc1cc(-c2cnc3cc(-c4ccc(C5COCC(C)N5)cc4)ccn23)c2cc(F)cc(F)c2n1 (stereo not shown)
b. Cc1cc(-c2cnc3cc(-c4ccc(N5CCC6(CCCCN6)CC5)cc4)ccn23)c2cc(F)cc(F)c2n1
Exercise: I'm curious whether a or b has the smaller CLint scaled number. Which is it? API: response body contains the label of the selected item.
Solution: a
(a: 82.2 mL/min/kg, b: 198 mL/min/kg)

###

test: Intrinsic clearance, human; type: in vitro ADME; settings: human, read-out: Intrinsic Clearance Human
endpoint label: CLint scaled (mL/min/kg)

P. Cc1cc(-c2cnc3cc(-c4ccc(C5COC(C)CN5)cc4)ccn23)c2ccccc2n1 (stereo not drawn)
Q. c1cnc2c(-c3cnc4cc(-c5ccc(C6CNCCN6)cc5)ccn34)ccnc2c1 (stereo not drawn)
Exercise: Could you kindly indicate whether P or Q has the higher CLint scaled value? Respond with the label that goes with your answer.
Solution: P
(P: 93 mL/min/kg, Q: 29.6 mL/min/kg)

###

target: ALK3/BMPR1A (Homo sapiens); assay: Kinase assay (33P-ATP filter-binding), ALK3; assay type: biochemical; settings: 1 mM; read-out: Kinase Selectivity ALK3/BMPR1A (1 mM)
Sequence (P36894 24-532): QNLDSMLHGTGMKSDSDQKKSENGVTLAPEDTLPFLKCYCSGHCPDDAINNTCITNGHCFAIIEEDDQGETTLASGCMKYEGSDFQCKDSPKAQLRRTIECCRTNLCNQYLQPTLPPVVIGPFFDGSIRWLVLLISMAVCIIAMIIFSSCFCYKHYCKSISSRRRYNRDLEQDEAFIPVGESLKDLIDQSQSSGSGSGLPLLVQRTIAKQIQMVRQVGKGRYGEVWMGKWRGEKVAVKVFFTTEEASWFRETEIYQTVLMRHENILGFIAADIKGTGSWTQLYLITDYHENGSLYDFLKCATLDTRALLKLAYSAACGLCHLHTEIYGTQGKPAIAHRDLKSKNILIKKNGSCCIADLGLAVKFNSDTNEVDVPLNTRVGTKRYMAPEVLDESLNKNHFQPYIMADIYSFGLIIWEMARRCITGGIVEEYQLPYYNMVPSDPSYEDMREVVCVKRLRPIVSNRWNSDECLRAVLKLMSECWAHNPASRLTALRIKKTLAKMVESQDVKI
pIC50: −log10 of the molar value.
endpoint label: pIC50

The cases that follow already have their pIC50 on record.
Cc1cc(-c2cnc3cc(-c4ccc(N5CCC6(CCC6)C5)cc4)ccn23)c2cc(F)cc(F)c2n1 | 4.36
NS(=O)(=O)c1ccc(-c2cnc3cc(-c4ccc(C5CNCCN5)cc4)ccn23)c2ccccc12 (stereo not shown) | 4.69
c1cnc2scc(-c3cnc4cc(-c5ccc(C6CNCCN6)cc5)ccn34)c2c1 (stereo not shown) | 7.67
c1cc(-c2cnc3cc(-c4ccc(C5CNCCN5)cc4)ccn23)c2cccnc2c1 (stereo not shown) | 7.08
c1cc(-c2cnc3cc(-c4ccc(C5CNCCN5)cc4)ccn23)ccn1 (stereo not shown) | 7.26

I. Cc1cc(-c2cnc3cc(-c4ccc(N5CCC6(CCCCN6)CC5)cc4)ccn23)c2cc(F)cc(F)c2n1
II. Cc1cc(-c2cnc3cc(-c4ccc(N5CCC6(CCCNC6)C5)cc4)ccn23)c2cc(F)cc(F)c2n1 (stereo not shown)
Exercise: Given the listed items, does I or II have the lesser reported pIC50? // return label of chosen record
Solution: I

###

assay: Intrinsic clearance, mouse; format: in vitro ADME; settings: mouse, CL-Hep, value in parentheses, read-out: Intrinsic Clearance Mouse (CL-Hep)
This section presents compounds with their documented CLint scaled values.

Cc1cc(-c2cnc3cc(-c4ccc(N5CCC6(CCCCN6)CC5)cc4)ccn23)c2cc(F)cc(F)c2n1 | 97.8 mL/min/kg
Cc1cc(-c2cnc3cc(-c4ccc(C5COC6(CCNCC6)CN5)cc4)ccn23)c2cc(F)cc(F)c2n1 (stereo not shown) | < 32.9 mL/min/kg
Cc1cc(-c2cnc3cc(-c4ccc(C5COC6(CCNC6)CN5)cc4)ccn23)c2cc(F)cc(F)c2n1 (stereo not shown) | < 32.9 mL/min/kg

Exercise: Which value of CLint scaled has been reported for c1cc(-c2cnc3cc(-c4ccc(C5CNCCN5)cc4)ccn23)c2cccnc2c1 (stereo not shown) in the records?
Solution: < 31.9 mL/min/kg

###

target: AMPK; assay: Kinase assay (33P-ATP filter-binding), AMPK; settings: read-out: Kinase Selectivity AMPK
pIC50: −log10 of the molar value.
endpoint label: pIC50

For orientation, consider the following solved cases.
c1cc(-c2cnc3cc(-c4ccc(C5CNCCN5)cc4)ccn23)c2cccnc2c1 (stereo not shown) | 4.41
Cc1cc(-c2cnc3cc(-c4ccc(C5COC6(CCNCC6)CN5)cc4)ccn23)c2cc(F)cc(F)c2n1 (stereo not shown) | 4.41
NS(=O)(=O)c1ccc(-c2cnc3cc(-c4ccc(C5CNCCN5)cc4)ccn23)c2ccccc12 (stereo not shown) | 5.03

1. c1cnc2nccc(-c3cnc4cc(-c5ccc(C6CNCCN6)cc5)ccn34)c2c1 (stereo not shown)
2. O=C1CNC(=O)C(c2ccc(-c3ccn4c(-c5cccc6ncccc56)cnc4c3)cc2)N1 (stereo not shown)
Exercise: Returns: the argument ( 1 or 2 ) having the larger pIC50. Answer by stating the label of the chosen item.
Solution: 2

###

assay: Intrinsic clearance, human; assay type: in vitro ADME; conditions: human, read-out: Intrinsic Clearance Human
endpoint label: CLint scaled (mL/min/kg)

Cc1cc(-c2cnc3cc(-c4ccc(C5COCC(C)N5)cc4)ccn23)c2cc(F)ccc2n1 (stereo not shown) [Compound 20] | 117

A. Cc1cc(-c2cnc3cc(-c4ccc(C5COCCCN5)cc4)ccn23)c2cc(F)cc(F)c2n1 (stereo not shown) [Compound 13]
B. Cc1cc(-c2cnc3cc(-c4ccc(C5CNCCN5)cc4)ccn23)c2cc(F)ccc2n1 (stereo not shown) [Compound 17]
C. Cc1cc(-c2cnc3cc(-c4ccc(C5COCCCN5)cc4)ccn23)c2cc(F)ccc2n1 (stereo not shown) [Compound 10]
Exercise: Provide the items ranked by increasing CLint scaled. Field: ranking. Enter the labels in the order requested.
Solution: B, A, C

a. Cc1cc(-c2cnc3cc(-c4ccc(C5COC(C)CN5)cc4)ccn23)c2cc(F)cc(F)c2n1 (stereo not shown) [Compound 19]
b. Cc1cc(-c2cnc3cc(N4CC5(CCNCC5)C4)ccn23)c2cc(F)cc(F)c2n1 [Compound 24]
Exercise: Kindly compare a with b and tell me which has the lower CLint scaled figure. Give the chosen item's label as your response.
Solution: b

P. Cc1cc(-c2cnc3cc(-c4ccc(C5COC(C)CN5)cc4)ccn23)c2cc(F)ccc2n1 (stereo not shown) [Compound 15]
Q. Cc1cc(-c2cnc3cc(-c4ccc(N5CCC6(CCCCN6)CC5)cc4)ccn23)c2cc(F)cc(F)c2n1 [Compound 25]
Exercise: Could you please tell me which of these two has the higher CLint scaled: P or Q ? # reply format: chosen label
Solution: P

###

molecular target: ALK3/BMPR1A (Homo sapiens); experiment: Kinase assay (33P-ATP filter-binding), ALK3; type: biochemical; conditions: 1 mM; read-out: Kinase Selectivity ALK3/BMPR1A (1 mM)
pIC50: −log10 of the molar value.
endpoint label: pIC50

Previously resolved entries follow.
Cc1cc(-c2cnc3cc(-c4ccc(N5CCC6(CCNC6)CC5)cc4)ccn23)c2cc(F)cc(F)c2n1 | 6.36
CN1CCN(c2ccc(-c3ccn4c(-c5ccnc6ncccc56)cnc4c3)cc2)CC1 | 7.76
Cc1cc(-c2cnc3cc(-c4ccc(N5CCC6(CCNCC6)C5)cc4)ccn23)c2cc(F)cc(F)c2n1 | 5.88
Cc1cc(-c2cnc3cc(-c4ccc(N5CCNC(C)(C)C5)cc4)ccn23)c2cc(F)cc(F)c2n1 | 8.24
Cc1cc(-c2cnc3cc(-c4ccc(N5CCCC6(CCCN6)C5)cc4)ccn23)c2cc(F)cc(F)c2n1 (stereo not drawn) | 7.35
Cc1cc(-c2cnc3cc(-c4ccc(N5CCNC6(CCC6)C5)cc4)ccn23)c2cc(F)cc(F)c2n1 | 8.60

a. Cc1cc(-c2cnc3cc(-c4ccc(N5CCC6(CCCNC6)CC5)cc4)ccn23)c2cc(F)cc(F)c2n1
b. Cc1cc(-c2cnc3cc(-c4ccc(C5C[C@@H](C)N[C@@H](C)C5)cc4)ccn23)c2cc(F)cc(F)c2n1 (stereo partly drawn)
Exercise: Please indicate which entry, a or b , has the lower recorded pIC50 value. Answer = label.
Solution: a

###

test: Protein binding, human; type: in vitro ADME
endpoint label: Protein Binding (% Free) Human

Cc1cc(-c2cnc3cc(-c4ccc(C5CNCCN5)cc4)ccn23)c2cc(F)ccc2n1 (stereo not shown) [Compound 17] | 10.3

P. Cc1cc(-c2cnc3cc(-c4ccc(C5CNCCN5)cc4)ccn23)c2ccccc2n1 (stereo not shown)
Q. Cc1cc(-c2cnc3cc(-c4ccc(C5COC6(CCNCC6)CN5)cc4)ccn23)c2cc(F)cc(F)c2n1 (stereo not shown)
R. Cc1cc(-c2cnc3cc(-c4ccc(N5CCC6(CCCCN6)CC5)cc4)ccn23)c2cc(F)cc(F)c2n1
Exercise: Sort by Protein Binding (% Free) Human, descending. Form entry: labels listed in requested order.
Solution: P, Q, R
